- assay.explanation: Cytotoxicity of D-xylose alone or + insulin, MTT assay, absence of viral infection (Example 2)
- test.settings: human, hela tzmbl cells, Cytotoxicity percentage, D-xylose 26 mM
experimental.readout: cytotoxicity at 48 h, 26000 µM
In your response, put the unit directly after the numeric value.

Any idea what its cytotoxicity at 48 h, 26000 µM is? The molecule is O=C[C@H](O)[C@@H](O)[C@H](O)CO [D-xylose]
9.04%

* * *

- assay.explanation: Antiviral assay against HIV-1 NL4-3, percentage of infected cells by immunofluorescence (Example 2)
- test.settings: human, hela tzmbl cells, Viability Percentages, D-xylose 104.000 mM, replicate wells
experimental.readout: viability at 48 h, 104000 µM (%)
Numbers only, in %.

Any idea what viability at 48 h, 104000 µM was measured for O=C[C@H](O)[C@@H](O)[C@H](O)CO [D-xylose] ?
20.8
